target-system: T1, human CCL2 (MCP1) - wild type (wt) (human, UniProt P13500 24-99)
T1 construct: Made in-house or bought (R&D Systems 279-MC), depending on the assay; can form dimers; also called wt human CCL2; WT human CCL2
protocol-notes: SPR T200, 37 C, antibody captured, 1:1 model
Protocol: Antibody clone supernatants were diluted 1:2 in system buffer and were captured for 1 min at 5 μl/min. […] Analyte kinetics were performed at 30 μl/min. As analyte in solution wt human CCL2 or monomeric CCL2 P8A variant CCL2 were used. Analytes were injected at 90 nM highest concentration. The analyte contact time was 3 min and the dissociation time was 10 min. The Biaevaluation software V.3.0 was used according to the instructions of the manufacturer GEHC. […]
pKd: −log10 of the molar value.
Listed below: pKd values for each entry.
endpoint-label: pKd

| binder | value-measured |
| --- | --- |
| 1A4 (antibody, V domains shown, which format stood in each assay is not always stated; also called CCL2-0008) VH: QSLEESGGDLVKPGASLTLTCTASELDFYWICWVRQAPGKGLEWIACIGAGSSGSTYYASWAKGRFTVSKTSSTTVTLQMTSLTAADTATYFCARTGTEFTYYSLWGPGTLVTVSS VL: ALVMTQTPSSVSAAVGGTVTINCQASQSVYNNNMAWYQQKPGQPPKLLIYTASSLASGVPSHFRGSGSGTQFTLTISDLESDDAATYYCAGYKSYSNDEYGFGGGTEVVVK | 10.14 |
| ABN912 (antibody, IgG1, V domains shown, IgG1 with kappa light chain; also called AB912; CCL2-0003) VH: EVQLVQSGGGLVQPGGSLRLSCAASGFTFSHYWMSWVRQAPGKGLEWLANIEQDGSEKYYVDSVKGRFTISRDNAKNSLYLQMNSLRAEDTAVYFCARDLEGLHGDGYFDLWGRGTLVTVSS VL: AIQLTQSPSSLSASVGDRVILTCRASQGVSSALAWYQQKPGKAPKLLIYDASSLESGVPSRFSGSGSGPDFTLTISSLQPEDFATYFCQQFNSYPLTFGGGTKVEIK | 10.44 |
| murine 11K2 (antibody, V domains shown, also called 11K2m; X-0048) VH: EVQLQQSGAELVKAGASVKLSCPASGLNIKDTYMHWVKQRPEQGLEWIGRIDPANGNTKFDPKFQGKATITADTSSNTAYLQLSSLTSEDTAVYYCARGVFGFFDYWGQGTTLTVSS VL: DIQMTQSSSSFSVSLGDRVTITCKATEDIYNRLAWYQQKPGSAPRLLISGATSLETGVPSRFSGSGSGKDYTLSITSLQTEDVATYYCQQFWSAPYTFGGGTKLEIK | 9.46 |
| 1A5 (antibody, IgG1, V domains shown, also called CCL2-0009) VH: QEQLVESGGDLVKPEGSLTLTCTASGFSFSTSYWMCWVRQAPGKGLELIACISSSIGVTYYASWAEGRFTISKTSSTTVTLQMTSLTVADTATYFCARTTDDNWNVGFNLWGPGTLVTVSS VL: AYDMTQTPASVEVGVGGTVTIKCQASQSIGNRYLSWYQQKPGQPPKLLIYGTSTLASGVSSRFKGSGSGTQFTLTISGVESADSATYYCQQGATISYLDNAFGGGTEVVVK | 10.62 |
| Humanized 11K2 (=11K2) (antibody, IgG1, V domains shown, IgG1 with kappa light chain; also called CCL2-0002; humanized 11k2 IgG1) VH: QVQLVQSGAEVKKPGSSVKVSCKASGLTISDTYMHWVRQAPGQGLEWMGRIDPANGNTKFDPKFQGRVTITADTSTSTAYMELSSLRSEDTAVYYCARGVFGFFDYWGQGTTVTVSS VL: DIQMTQSPSSLSASVGDRVTITCKATEDIYNRLAWYQQKPGKAPKLLISGATSLETGVPSRFSGSGSGTDYTLTISSLQPEDFATYYCQQFWSAPYTFGGGTKVEIK | 10.55 |
| 1G9 (antibody, IgG1, V domains shown, also called CCL2-0010) VH: QSLEESGGDLVKPGASLTLTCKASGIDFSLYSYMCWVRQAPGKGLEWIACVDAGASGSTYYASWAKGRFTISKTSSTTVTLQMTSLTAADTATYFCARGILYYTWPYPAGAIDAFDSWGPGTLVTVSS VL: AYDMTQTPASVSEPVGGTVTIKCQASESISNYLSWYQQKPGQPPKLLIYKASTLASGVPSRFKGSGSGTEYTVTISGVQSDDAATYYCQQSYSSSNVFNTFGGGTEVVVK | 10.21 |
| 2F6 (antibody, IgG1, V domains shown, also called CCL2-0014) VH: QSLEESGGGLVQPEGSLTLTCTASGFSFNNNYYMCWVRQAPGKGLEWIGCISTDDSNTHYASWAQGRFTISKASSTALTLQVAGLTVADMATYFCARDAHFTSYGYGFDLWGPGTLVTVSS VL: DIVMTQTPASVSAAVGGTVSINCRASEDIENLVAWYQQKPGQPPKLLIYQASKLASGVPSRFKGSGSGAEFTLTIGDLESADAATYYCQGDYGSGWIMYSFGGGTDLVVK | 10.23 |
